# Method notes: in vivo
# Condition label: female, athymic nude, mouse, iv, 30 mg/kg

Compound	Value unit	AUC(0-inf)
CC(=O)O[C@@]12CO[C@@H]1C[C@H](O)[C@@]1(C)C(=O)[C@H](O)C3=C(C)[C@@H](OC(=O)[C@H](O)[C@@H](NC(=O)OC(C)(C)C)c4ccccc4)C[C@@](O)([C@@H](OC(=O)c4ccccc4)[C@H]21)C3(C)C [Docetaxel, docetaxel]	ng·h/mL	8800

====

# Method notes: in vivo
# Condition label: male, athymic nude, mouse, plasma, iv, 19 mg/kg

Substance smiles	Value unit	Cmax
CC(=O)O[C@@]12CO[C@@H]1C[C@H](O)[C@@]1(C)C(=O)[C@H](O)C3=C(C)[C@@H](OC(=O)[C@H](O)[C@@H](NC(=O)OC(C)(C)C)c4ccccc4)C[C@@](O)([C@@H](OC(=O)c4ccccc4)[C@H]21)C3(C)C	ng/mL	13000

The reported numbers originate from patent US20140271822A1.
